System: A549
Assay: cells
Type: functional, cell-based
Settings: Homo sapiens, A549, 72 h
Kindly supply the reported pIC50 values for the records listed here.
Answers are plain numbers, as −log10 of the molar value.

CC(=O)Nc1ccc(C(=O)Nc2ccccc2N)cc1 [TACEDINALINE] = 4.80

Now for a further compound.
Give the reported pIC50 for COC(=O)c1ccc2ccccc2c1OCCCCCCCC(=O)NO (system: A549).
4.21

---

Biological target: Histone deacetylase 1 (Homo sapiens, UniProt Q13547)
Sequence (Q13547 whole entry): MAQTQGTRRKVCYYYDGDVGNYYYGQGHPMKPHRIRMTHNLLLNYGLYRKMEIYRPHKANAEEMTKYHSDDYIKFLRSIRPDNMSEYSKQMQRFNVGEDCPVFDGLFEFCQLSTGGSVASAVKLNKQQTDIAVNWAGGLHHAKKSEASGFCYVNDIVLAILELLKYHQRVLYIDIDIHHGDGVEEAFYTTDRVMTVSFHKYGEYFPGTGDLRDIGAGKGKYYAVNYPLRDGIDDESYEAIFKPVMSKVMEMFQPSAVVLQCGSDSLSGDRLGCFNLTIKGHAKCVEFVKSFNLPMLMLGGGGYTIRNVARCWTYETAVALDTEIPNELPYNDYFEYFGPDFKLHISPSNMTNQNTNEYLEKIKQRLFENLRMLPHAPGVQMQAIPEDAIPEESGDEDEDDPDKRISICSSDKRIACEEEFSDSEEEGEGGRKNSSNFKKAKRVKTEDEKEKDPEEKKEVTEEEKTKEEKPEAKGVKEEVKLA
Assay: Inhibition of human recombinant HDAC1 using fluorogenic HDAC substrate measured after 15 mins by fluorimetry assay
Measured property: pIC50
One number for each entry, as −log10 of the molar value.

Request the reported pIC50 associated with COC(=O)c1ccc2ccccc2c1OCCCCCCCC(=O)NO
5.46
